Origin of values: PubChem BioAssay AID686996

Biological target: Caspase-6 (Homo sapiens)
Test: human caspase-6 inhibitors, primary screen, biochemical, VEID-R110 fluorescence, single point, set 2 (AID 686996);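 note: 0% = median of neutral control wells and 100% = no fluorescence left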
Settings: purified caspase-6, Z-VEID-R110 cleavage fluorescence; at 12.5 µM; stronger effect = higher value
About 1,900 (0.54%) of roughly 350,000 compounds were called active. What follows is part of a selection rich in actives, with near analogues and random picks from the rest.
This section presents compounds with their documented inhibition values.
property_label: inhibition (%)

smiles_record=C[C@H]1CN([C@@H](C)CO)S(=O)(=O)c2ccc(-c3ccncc3)cc2O[C@H]1CN(C)S(C)(=O)=O unit_annotation=% numeric_readout=-2.14
smiles_record=COc1ccccc1CCNC(=O)C1CCN(C(=O)/C=C/c2ccccc2)CC1 unit_annotation=% numeric_readout=-1.88
smiles_record=C[C@H]1CN([C@@H](C)CO)C(=O)Cc2cc(NS(=O)(=O)c3ccccc3)ccc2O[C@@H]1CN(C)Cc1ccc(C(=O)Nc2ccccc2N)cc1 unit_annotation=% numeric_readout=39.7
smiles_record=COC(=O)c1ccc(COc2ccc(/C=C/C(=O)c3ccc(OC)c(CSCC(=O)O)c3)cc2OC)cc1 unit_annotation=% numeric_readout=41
smiles_record=COc1cc(/C=C/C(=O)OCC(=O)NC(=O)NCc2ccccc2)ccc1OCC#N unit_annotation=% numeric_readout=0.201
smiles_record=COc1ccc(C(=O)/C=C/c2ccc(-c3ccccc3)cc2)cc1CSCC(=O)O unit_annotation=% numeric_readout=63.7
smiles_record=COc1cccc(/C=C2\SC(=S)N(CCCC(=O)N3CCOCC3)C2=O)c1 unit_annotation=% numeric_readout=-1.77
smiles_record=C/C=C/c1ccc([C@@H]2[C@H](CO)N(S(=O)(=O)Cc3ccccc3)C23CN(C(=O)C2CCOCC2)C3)cc1 unit_annotation=% numeric_readout=0.958
smiles_record=C[C@H]1CN([C@@H](C)CO)S(=O)(=O)c2ccc(-c3cccc(C#N)c3)cc2O[C@H]1CN(C)C(=O)c1ccccc1 unit_annotation=% numeric_readout=5.87
